Answer each item with its documented MIC50.
Test system: Streptococcus constellatus
methodNotes: Antibacterial activity against Streptococcus constellatus clinical isolate by broth microdilution method
Type: functional
Answer format: numeric, µg/mL implied, no suffix.

What measured MIC50 goes with CCCCCCCCCC(=O)N[C@@H](Cc1c[nH]c2ccccc12)C(=O)N[C@H](CC(N)=O)C(=O)N[C@@H](CC(=O)O)C(=O)N[C@@H]1C(=O)NCC(=O)N[C@@H](CCCN)C(=O)N[C@@H](CC(=O)O)C(=O)N[C@H](C)C(=O)N[C@@H](CC(=O)O)C(=O)NCC(=O)N[C@H](CO)C(=O)N[C@@H]([C@H](C)CC(=O)O)C(=O)N[C@@H](CC(=O)c2ccccc2N)C(=O)O[C@@H]1C ?
0.25

What measured MIC50 goes with CC(=O)NC[C@H]1CN(c2ccc(N3CCOCC3)c(F)c2)C(=O)O1 ?
1

What measured MIC50 goes with CCCCCCCCCCNCCN[C@@]1(C)C[C@H](O[C@H]2[C@H](Oc3c4cc5cc3Oc3ccc(cc3Cl)[C@@H](O)[C@@H](NC(=O)[C@@H](CC(C)C)NC)C(=O)N[C@@H](CC(N)=O)C(=O)N[C@H]5C(=O)N[C@H]3C(=O)N[C@H](C(=O)N[C@H](C(=O)O)c5cc(O)c(CNCP(=O)(O)O)c(O)c5-c5cc3ccc5O)[C@H](O)c3ccc(c(Cl)c3)O4)O[C@H](CO)[C@@H](O)[C@@H]2O)O[C@@H](C)[C@H]1O ?
0.03

What measured MIC50 goes with C[C@H]1COc2c(N3CCN(C)CC3)c(F)cc3c(=O)c(C(=O)O)cn1c23.C[C@H]1COc2c(N3CCN(C)CC3)c(F)cc3c(=O)c(C(=O)O)cn1c23.O ?
0.5

What measured MIC50 goes with CN[C@H](CC(C)C)C(=O)N[C@H]1C(=O)N[C@@H](CC(N)=O)C(=O)N[C@H]2C(=O)N[C@H]3C(=O)N[C@H](C(=O)N[C@H](C(=O)O)c4cc(O)cc(O)c4-c4cc3ccc4O)[C@H](O)c3ccc(c(Cl)c3)Oc3cc2cc(c3O[C@@H]2O[C@H](CO)[C@@H](O)[C@H](O)[C@H]2O[C@H]2C[C@](C)(N)[C@H](O)[C@H](C)O2)Oc2ccc(cc2Cl)[C@H]1O ?
0.5

###

Test system: Enterococcus faecalis
methodNotes: Antibacterial activity against vancomycin-susceptible Enterococcus faecalis clinical isolate by broth microdilution method
Assay type: functional
valueKind: MIC90 (µg/mL)
Answer format: numeric, µg/mL implied, no suffix.

What measured MIC90 goes with CN[C@H](CC(C)C)C(=O)N[C@H]1C(=O)N[C@@H](CC(N)=O)C(=O)N[C@H]2C(=O)N[C@H]3C(=O)N[C@H](C(=O)N[C@H](C(=O)O)c4cc(O)cc(O)c4-c4cc3ccc4O)[C@H](O)c3ccc(c(Cl)c3)Oc3cc2cc(c3O[C@@H]2O[C@H](CO)[C@@H](O)[C@H](O)[C@H]2O[C@H]2C[C@](C)(N)[C@H](O)[C@H](C)O2)Oc2ccc(cc2Cl)[C@H]1O [VANCOMYCIN] ?
2

What measured MIC90 goes with CC1(C)S[C@@H]2[C@H](NC(=O)[C@H](N)c3ccccc3)C(=O)N2[C@H]1C(=O)O [AMPICILLIN] ?
1

What measured MIC90 goes with CCCCCCCCCCNCCN[C@@]1(C)C[C@H](O[C@H]2[C@H](Oc3c4cc5cc3Oc3ccc(cc3Cl)[C@@H](O)[C@@H](NC(=O)[C@@H](CC(C)C)NC)C(=O)N[C@@H](CC(N)=O)C(=O)N[C@H]5C(=O)N[C@H]3C(=O)N[C@H](C(=O)N[C@H](C(=O)O)c5cc(O)c(CNCP(=O)(O)O)c(O)c5-c5cc3ccc5O)[C@H](O)c3ccc(c(Cl)c3)O4)O[C@H](CO)[C@@H](O)[C@@H]2O)O[C@@H](C)[C@H]1O [TELAVANCIN] ?
1

What measured MIC90 goes with CC(=O)NC[C@H]1CN(c2ccc(N3CCOCC3)c(F)c2)C(=O)O1 [LINEZOLID] ?
2

What measured MIC90 goes with CCCCCCCCCC(=O)N[C@@H](Cc1c[nH]c2ccccc12)C(=O)N[C@H](CC(N)=O)C(=O)N[C@@H](CC(=O)O)C(=O)N[C@@H]1C(=O)NCC(=O)N[C@@H](CCCN)C(=O)N[C@@H](CC(=O)O)C(=O)N[C@H](C)C(=O)N[C@@H](CC(=O)O)C(=O)NCC(=O)N[C@H](CO)C(=O)N[C@@H]([C@H](C)CC(=O)O)C(=O)N[C@@H](CC(=O)c2ccccc2N)C(=O)O[C@@H]1C ?
1

###

Answer each item with its documented MIC90.
System: Staphylococcus capitis
methodNotes: Antibacterial activity against methicillin-resistant coagulase-negative Staphylococcus capitis clinical isolate by broth microdilution method
Type: functional
Answer format: numeric, µg/mL implied, no suffix.

What measured MIC90 goes with CC(=O)NC[C@H]1CN(c2ccc(N3CCOCC3)c(F)c2)C(=O)O1 ?
1

What measured MIC90 goes with CCCCCCCCCC(=O)N[C@@H](Cc1c[nH]c2ccccc12)C(=O)N[C@H](CC(N)=O)C(=O)N[C@@H](CC(=O)O)C(=O)N[C@@H]1C(=O)NCC(=O)N[C@@H](CCCN)C(=O)N[C@@H](CC(=O)O)C(=O)N[C@H](C)C(=O)N[C@@H](CC(=O)O)C(=O)NCC(=O)N[C@H](CO)C(=O)N[C@@H]([C@H](C)CC(=O)O)C(=O)N[C@@H](CC(=O)c2ccccc2N)C(=O)O[C@@H]1C ?
1

What measured MIC90 goes with CCCCCCCCCCNCCN[C@@]1(C)C[C@H](O[C@H]2[C@H](Oc3c4cc5cc3Oc3ccc(cc3Cl)[C@@H](O)[C@@H](NC(=O)[C@@H](CC(C)C)NC)C(=O)N[C@@H](CC(N)=O)C(=O)N[C@H]5C(=O)N[C@H]3C(=O)N[C@H](C(=O)N[C@H](C(=O)O)c5cc(O)c(CNCP(=O)(O)O)c(O)c5-c5cc3ccc5O)[C@H](O)c3ccc(c(Cl)c3)O4)O[C@H](CO)[C@@H](O)[C@@H]2O)O[C@@H](C)[C@H]1O ?
0.5

What measured MIC90 goes with CN[C@H](CC(C)C)C(=O)N[C@H]1C(=O)N[C@@H](CC(N)=O)C(=O)N[C@H]2C(=O)N[C@H]3C(=O)N[C@H](C(=O)N[C@H](C(=O)O)c4cc(O)cc(O)c4-c4cc3ccc4O)[C@H](O)c3ccc(c(Cl)c3)Oc3cc2cc(c3O[C@@H]2O[C@H](CO)[C@@H](O)[C@H](O)[C@H]2O[C@H]2C[C@](C)(N)[C@H](O)[C@H](C)O2)Oc2ccc(cc2Cl)[C@H]1O ?
2

###

Answer each item with its documented MIC50.
System: Staphylococcus capitis
methodNotes: Antibacterial activity against methicillin-resistant coagulase-negative Staphylococcus capitis clinical isolate by broth microdilution method
Assay type: functional

What measured MIC50 goes with CC(=O)NC[C@H]1CN(c2ccc(N3CCOCC3)c(F)c2)C(=O)O1 ?
1 µg/mL

What measured MIC50 goes with CCCCCCCCCC(=O)N[C@@H](Cc1c[nH]c2ccccc12)C(=O)N[C@H](CC(N)=O)C(=O)N[C@@H](CC(=O)O)C(=O)N[C@@H]1C(=O)NCC(=O)N[C@@H](CCCN)C(=O)N[C@@H](CC(=O)O)C(=O)N[C@H](C)C(=O)N[C@@H](CC(=O)O)C(=O)NCC(=O)N[C@H](CO)C(=O)N[C@@H]([C@H](C)CC(=O)O)C(=O)N[C@@H](CC(=O)c2ccccc2N)C(=O)O[C@@H]1C ?
0.5 µg/mL

What measured MIC50 goes with CN[C@H](CC(C)C)C(=O)N[C@H]1C(=O)N[C@@H](CC(N)=O)C(=O)N[C@H]2C(=O)N[C@H]3C(=O)N[C@H](C(=O)N[C@H](C(=O)O)c4cc(O)cc(O)c4-c4cc3ccc4O)[C@H](O)c3ccc(c(Cl)c3)Oc3cc2cc(c3O[C@@H]2O[C@H](CO)[C@@H](O)[C@H](O)[C@H]2O[C@H]2C[C@](C)(N)[C@H](O)[C@H](C)O2)Oc2ccc(cc2Cl)[C@H]1O ?
2 µg/mL

What measured MIC50 goes with CCCCCCCCCCNCCN[C@@]1(C)C[C@H](O[C@H]2[C@H](Oc3c4cc5cc3Oc3ccc(cc3Cl)[C@@H](O)[C@@H](NC(=O)[C@@H](CC(C)C)NC)C(=O)N[C@@H](CC(N)=O)C(=O)N[C@H]5C(=O)N[C@H]3C(=O)N[C@H](C(=O)N[C@H](C(=O)O)c5cc(O)c(CNCP(=O)(O)O)c(O)c5-c5cc3ccc5O)[C@H](O)c3ccc(c(Cl)c3)O4)O[C@H](CO)[C@@H](O)[C@@H]2O)O[C@@H](C)[C@H]1O ?
0.25 µg/mL

###

Tested on: Enterococcus faecalis
methodNotes: Antibacterial activity against vancomycin- and teichoplanin-nonsusceptible Enterococcus faecalis clinical isolate by broth microdilution method
Format: functional
valueKind: MIC50

What measured MIC50 goes with CCCCCCCCCC(=O)N[C@@H](Cc1c[nH]c2ccccc12)C(=O)N[C@H](CC(N)=O)C(=O)N[C@@H](CC(=O)O)C(=O)N[C@@H]1C(=O)NCC(=O)N[C@@H](CCCN)C(=O)N[C@@H](CC(=O)O)C(=O)N[C@H](C)C(=O)N[C@@H](CC(=O)O)C(=O)NCC(=O)N[C@H](CO)C(=O)N[C@@H]([C@H](C)CC(=O)O)C(=O)N[C@@H](CC(=O)c2ccccc2N)C(=O)O[C@@H]1C ?
0.5 µg/mL

What measured MIC50 goes with CC1(C)S[C@@H]2[C@H](NC(=O)[C@H](N)c3ccccc3)C(=O)N2[C@H]1C(=O)O [AMPICILLIN] ?
1 µg/mL

Entry source: ChEMBL document CHEMBL1255376
